Below: compounds with pKi recorded for 5-hydroxytryptamine receptor 2C (Rattus norvegicus, UniProt P08909) in separate published works.
On this scale, pKi is minus log10 of a concentration expressed in M (mol/L).

Reference set, count: 3
>  <structure as smiles>
O=C1CC2(CCCC2)CC(=O)N1CCCCN1CCN(c2nsc3ccccc23)CC1

>  <assay target>
5-hydroxytryptamine receptor 2C (Rattus norvegicus, UniProt P08909)
Sequence (P08909 whole entry): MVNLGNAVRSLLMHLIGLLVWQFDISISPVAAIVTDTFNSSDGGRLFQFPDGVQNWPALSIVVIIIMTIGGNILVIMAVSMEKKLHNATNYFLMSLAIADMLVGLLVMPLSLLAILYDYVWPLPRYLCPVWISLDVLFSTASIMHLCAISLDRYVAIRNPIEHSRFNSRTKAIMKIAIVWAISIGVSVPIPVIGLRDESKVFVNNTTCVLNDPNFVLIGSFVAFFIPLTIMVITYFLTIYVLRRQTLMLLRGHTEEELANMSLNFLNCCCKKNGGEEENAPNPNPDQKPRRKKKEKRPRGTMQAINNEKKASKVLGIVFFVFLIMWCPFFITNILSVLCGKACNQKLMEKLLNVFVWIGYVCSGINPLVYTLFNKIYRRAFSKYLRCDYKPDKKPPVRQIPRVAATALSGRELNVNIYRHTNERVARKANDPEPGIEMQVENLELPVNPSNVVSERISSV

>  <value reported>
8.00

$$$$
>  <structure as smiles>
CCN1CCC[C@H]1CNC(=O)c1c(O)c(Cl)cc(Cl)c1OC

>  <assay target>
5-hydroxytryptamine receptor 2C (Rattus norvegicus, UniProt P08909)

>  <value reported>
5.30

$$$$
>  <structure as smiles>
CN(C)CCCn1c2c(c3ccccc31)CCCCCC2

>  <assay target>
5-hydroxytryptamine receptor 2C (Rattus norvegicus, UniProt P08909)

>  <value reported>
6.69

$$$$

Prompt: For the compound shown here, OCCN1CCN(CC/C=C2/c3ccccc3Sc3ccc(C(F)(F)F)cc32)CC1 , give the reported pKi.
Response: 6.99

Prompt: For the compound shown here, COc1cc(N)c(Cl)cc1C(=O)CCC1CCN(CCNS(C)(=O)=O)CC1 , give the reported pKi.
Response: 5.70

* * *

Below: compounds with pKi recorded for UniProt:P08909 in separate published works.
pKi: −log10 of the molar value.

Reference set, count: 2
>  <structure as smiles>
N[C@H](CCS(=O)(=O)O)C(=O)O

>  <value reported>
< 5.00

$$$$
>  <structure as smiles>
C[C@@H]1O[C@@H](OC[C@H]2O[C@@H](Oc3c(-c4ccc(O)c(O)c4)oc4cc(O)cc(O)c4c3=O)[C@H](O)[C@@H](O)[C@@H]2O)[C@H](O)[C@H](O)[C@H]1O

>  <value reported>
< 5.00

$$$$

Prompt: Give UniProt:P08909 pKi for COC(=O)[C@@H]1[C@H]2C[C@H]3c4[nH]c5ccccc5c4CCN3C[C@@H]2CC[C@@H]1O
Response: < 5.00
